Assay: chemical genetic growth profiling, strain panel (AID 1159580);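 further: tested at 20 µM; growth read once vehicle control cultures reached saturation at 30 °C; 1 = growth at the plate median or of vehicle wells; lower values mean less growth of the strain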
Settings: S. cerevisiae deletion strains, growth OD, strain TSCII, active compounds read low
Hit rate of the full screen: of about 5,500 compounds, about 2,000 (36%) were called active. About 18% were inconclusive and are not listed. The list shows a part of the results.
Each entry below carries its reported normalized growth.
Please respond with just the number, no unit label.

# Structure as smiles, Assay metric, Numeric readout
records = [
    ("N/C(=N/OC(=O)c1cnn(-c2ccc([N+](=O)[O-])cc2)c1C(F)(F)F)c1ccc(Cl)cc1", "normalized growth", 0.989),
    ("Cc1ccc(Sc2ncccc2NS(=O)(=O)c2ccc(Cl)cc2)cc1", "normalized growth", 0.928),
    ("N/C(=N/OC(=O)c1ccc([N+](=O)[O-])cc1)c1c(Cl)cccc1Cl", "normalized growth", 0.942),
]

Let us move to another entry and its normalized growth.
// fetch normalized growth given entry `O=C(OCc1ccccc1Br)c1cc([N+](=O)[O-])cc([N+](=O)[O-])c1` 0.976

Attribution: PubChem BioAssay AID1159580
